- experimentalSystem: T1, human Claudin18.2 (CLDN18.2), full length, on cells (human)
- T1 construct: also called CLDN18.2-FL; HEK293-CLDN18.2 cells
- assayNotes: FACS on NUGC4 cells
Let's look at some binders and their measured MFI (CLDN18.2).
Express it in MFI; write the number only.

3CHI (antibody, V domains shown, Human-murine chimeric antibody with the constant region of human IgG1; also called chimeric antibody of S5H3B6; original 3CHI antibody) VH: EVKLVESGGGLVQPGGSLKLSCAASGFTFSDYGMAWVRQAPRKGPEWVAFISNLAYSIYYADTVTGRFTISRENAKNTLYLEMSSLRSEDTAMYYCARLGYGNSFAYWGQGTLVTVSA VL: DIVMTQSPSSLTVTAGEKVTMSCKSSQSLLNSGNQKNYLTWYQQKPGQPPKLLIYWASTRESGVPDRFTGSGSGTDFTLTISSVQAEDLAVYYCQNDYSYPLTFGAGTKLELK :: 2510
321CHI (antibody, human IgG1, V domains shown, chimeric with the constant region of human IgG1) VH: EVKLVESGGGLVQPGGSLKLSCAASGFGFSDYGMAWVRQAPRKGPEWVAFISNSAYSIYYADTVTGRFTISRENAKNTLYLEMSSLRSEDTAMYYCARLGRGNSFAYWGQGTLVTVSA VL: DIVMTQSPSSLTVTAGEKVTMSCKSSQSLLNSGNQKNYLTWYQQKPGQPPKLLIYWASTRESGVPDRFTGSGSGTDFTLTISSVQAEDLAVYYCQNELFYPLTFGAGTKLELK :: 46300

**Q:** Which measured MFI (CLDN18.2) value corresponds to 324CHI (antibody, human IgG1, V domains shown, chimeric with the constant region of human IgG1) VH: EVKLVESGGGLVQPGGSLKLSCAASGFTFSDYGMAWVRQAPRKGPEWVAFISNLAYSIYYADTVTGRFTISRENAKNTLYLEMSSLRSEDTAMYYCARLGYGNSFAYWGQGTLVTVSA VL: DIVMTQSPSSLTVTAGEKVTMSCKSSQSLLNSGNQKNYLTWYQQKPGQPPKLLIYWGSTRESGVPDRFTGSGSGTDFTLTISSVQAEDLAVYYCQNELFYPLTFGAGTKLELK ?
**A:** 36000
